B1: HDV Ribozyme (parent)
chain: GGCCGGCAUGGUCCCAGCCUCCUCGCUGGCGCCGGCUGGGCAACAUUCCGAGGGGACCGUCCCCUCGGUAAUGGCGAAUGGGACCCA

# Variants of: B1
# ASSAY_OVERVIEW: self-cleavage, relative activity (ratio to wild type); higher = more cleavage; co-transcriptional
Attribute: self-cleavage
METRIC: self-cleavage

[[record]]
variant_string = "G73A U79C"
observed_value = 0.186

[[record]]
variant_string = "C14G G76U"
observed_value = 0.985

[[record]]
variant_string = "C32A G73C"
observed_value = 0.0906

[[record]]
variant_string = "C64A A71C"
observed_value = 0.277

[[record]]
variant_string = "G28U C44U"
observed_value = 0.0297

[[record]]
variant_string = "G6C C41A"
observed_value = 0

[[record]]
variant_string = "C24U G55A"
observed_value = 0.869

[[record]]
variant_string = "G2A C44A"
observed_value = 0.0875

[[record]]
variant_string = "C19G G59A"
observed_value = 0.0542

[[record]]
variant_string = "A8U G73A"
observed_value = 0.323

[[record]]
variant_string = "A8G U9A"
observed_value = 0.506

[[record]]
variant_string = "C22U A45C"
observed_value = 0.113

[[record]]
variant_string = "G5C G73A"
observed_value = 0.0554

[[record]]
variant_string = "G50U G55A"
observed_value = 1.11

[[record]]
variant_string = "G10C C26A"
observed_value = 1.12

[[record]]
variant_string = "U60G G80A"
observed_value = 0.286

[[record]]
variant_string = "G73C C75A"
observed_value = 0.173

[[record]]
variant_string = "C33G G67C"
observed_value = 0.0978

[[record]]
variant_string = "A42G C49A"
observed_value = 0.302

[[record]]
variant_string = "C22A A83U"
observed_value = 0.0678

[[record]]
variant_string = "G53U C58G"
observed_value = 0.939

[[record]]
variant_string = "C13U C44U"
observed_value = 0.185

[[record]]
variant_string = "C21A G67C"
observed_value = 0.137

[[record]]
variant_string = "C66G G67C"
observed_value = 1.01

[[record]]
variant_string = "U27C G35C"
observed_value = 0

[[record]]
variant_string = "U27G C62U"
observed_value = 1.02

[[record]]
variant_string = "G1A U27C"
observed_value = 0.119

[[record]]
variant_string = "U20A G31U"
observed_value = 0.0978

[[record]]
variant_string = "C18A U47C"
observed_value = 0.0536

[[record]]
variant_string = "G40A C57U"
observed_value = 1.13

[[record]]
variant_string = "G35U A51U"
observed_value = 0.471

[[record]]
variant_string = "G29A C48U"
observed_value = 0.0656

[[record]]
variant_string = "A43G C66A"
observed_value = 0.554

[[record]]
variant_string = "C64A G74A"
observed_value = 0.295

[[record]]
variant_string = "A16U C64G"
observed_value = 0.782

[[record]]
variant_string = "U20A A70U"
observed_value = 0.0615

[[record]]
variant_string = "C14U G74A"
observed_value = 0.604

[[record]]
variant_string = "U9A C48A"
observed_value = 1.01

[[record]]
variant_string = "A56C U60A"
observed_value = 0.937

